Test system: U-87 MG
Assay: Antiproliferative activity against human U87 cells assessed as cell growth inhibition at 25 uM incubated for 72 hrs by MTT assay relative to control
Assay type: functional, U-87MG ATCC

{"molecule": "COC(=O)c1cccc(/C=C/c2nc3ccccc3c(=O)[nH]2)c1", "subject-of-test": "U-87 MG", "bound-operator": "=", "inhibition at 25 µM (%)": 11}
{"molecule": "O=C1NC(/C=C/c2ccco2)Nc2ccccc21 (centres undefined)", "subject-of-test": "U-87 MG", "bound-operator": "=", "inhibition at 25 µM (%)": 99}
{"molecule": "O=C1NC(c2ccc(-c3ccccc3)cc2)Nc2ccccc21 (centres undefined)", "subject-of-test": "U-87 MG", "bound-operator": ">", "inhibition at 25 µM (%)": 100}
{"molecule": "O=C1NC(c2ccccc2Br)Nc2ccccc21 (centres undefined)", "subject-of-test": "U-87 MG", "bound-operator": "=", "inhibition at 25 µM (%)": 80}
